# tested system: collagenase obtained from a culture of human synovial fibroblasts (Homo sapiens)
# Construct: endogenous in cells
# Sequence (P03956 100-469): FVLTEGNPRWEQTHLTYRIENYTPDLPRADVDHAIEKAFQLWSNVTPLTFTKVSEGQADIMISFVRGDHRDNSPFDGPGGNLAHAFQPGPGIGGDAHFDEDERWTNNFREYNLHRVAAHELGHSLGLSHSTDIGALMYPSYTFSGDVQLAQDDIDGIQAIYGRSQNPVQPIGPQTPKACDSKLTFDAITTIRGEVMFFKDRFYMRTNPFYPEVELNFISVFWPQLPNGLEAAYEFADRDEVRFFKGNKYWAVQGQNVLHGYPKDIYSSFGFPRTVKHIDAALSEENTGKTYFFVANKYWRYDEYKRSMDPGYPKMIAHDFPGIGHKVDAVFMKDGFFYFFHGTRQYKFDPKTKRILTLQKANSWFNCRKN
# protocol summary: in vitro inhibition of collagenase (microtitre plate assay, 14C-acetylated collagen type I from rat tail tendons as substrate)
# run parameters: human synovial fibroblast collagenase, trypsin-activated; 14C-acetylated collagen type I substrate
pIC50: −log10 of the molar value.
parameter: pIC50

• CNC(=O)[C@H](CC(C)C)NC(=O)C(CC(C)C)CP(=O)(O)CN1C(=O)c2cccc3cccc(c23)C1=O (some centres unmarked) = 6.80

A = CC(C)CC(CP(=O)(O)CN1C(=O)c2cccc3cccc(c23)C1=O)C(=O)NC1CCCCCCCCCCNC1=O (single isomer, unassigned)
B = CC(C)CC(CP(=O)(O)CNC(=O)[C@H](CC(C)C)NC(=O)[C@@H]1CCCN1C(=O)OCc1ccccc1)C(=O)N[C@@H](CC(C)C)C(=O)N[C@@H](C)C(=O)O (single isomer, unassigned)
C = CNC(=O)[C@H](CC(C)C)NC(=O)C(CC(C)C)CP(=O)(O)CN1C(=O)c2cccc(N)c2C1=O (mixture of isomers)
D = CC(C)C[C@@H](CP(=O)(O)Cn1c(=O)[nH]c2ccccc2c1=O)C(=O)N[C@@H]1CCCCCCCCCCNC1=O (single isomer, unassigned)
Ordering: ascending pIC50. Write the labels in rank order as requested.
C, D, A, B
(C: 6.22, D: 6.66, A: 6.96, B: 7.25)
